Just for reference, the RNAGym collection of RNA variant scans (doi:10.1101/gad.245936.114) is where these values come from.

B1: tRNA (parent)
chain: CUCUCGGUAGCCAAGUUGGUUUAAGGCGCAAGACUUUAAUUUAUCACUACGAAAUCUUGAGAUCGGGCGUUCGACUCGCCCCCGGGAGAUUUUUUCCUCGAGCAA

variants of: B1; assay: nonsense suppression (GFP-seq) (ratio to wild type); higher = more function; SUP4oc tRNA, yeast GFP reporter sort-seq
This sample holds only a part of the variants without activity.
readout: nonsense suppression
Please respond with just the number, no unit label.

Look at this variant and give its reported nonsense suppression. A13C A30G
0.892

Look at this variant and give its reported nonsense suppression. A30U
0.575

Look at this variant and give its reported nonsense suppression. C29U G61U
0.754

Look at this variant and give its reported nonsense suppression. A33U C75A
0.192

Look at this variant and give its reported nonsense suppression. U16C A54C
1.22

Look at this variant and give its reported nonsense suppression. U4C A9G A13G U76C
0.202

Look at this variant and give its reported nonsense suppression. U21G U22C C82U
0.199

Look at this variant and give its reported nonsense suppression. U16C G28A
1.06

Look at this variant and give its reported nonsense suppression. G28A A33U
0.0279

Look at this variant and give its reported nonsense suppression. G78C G84U
0.0271

Look at this variant and give its reported nonsense suppression. U21G C83U
0.0839

Look at this variant and give its reported nonsense suppression. U22A
1.13

Look at this variant and give its reported nonsense suppression. U4C A13G C29U
0.221

Look at this variant and give its reported nonsense suppression. U2C G61C
0.0279

Look at this variant and give its reported nonsense suppression. U22A A30U
0.177

Look at this variant and give its reported nonsense suppression. U16A G61A
0.819

Look at this variant and give its reported nonsense suppression. C1A C81U
0.045

Look at this variant and give its reported nonsense suppression. A31G A54C
0.0977

Look at this variant and give its reported nonsense suppression. U55C
1.09

Look at this variant and give its reported nonsense suppression. U17G U21A
1.16
